Assignment: determine reported pEC50 for the given compounds.
Tested on: hypoxia-inducible endogenous VEGF expression
Test: Assay to evaluate effect on hypoxia-inducible endogenous VEGF expression (VEGF ELISA, HeLa cells)
Format: cell-based
Conditions: Homo sapiens; HeLa cells cultured 24-48 hours under hypoxic conditions (1% O2, 5% CO2); VEGF in conditioned media by ELISA; read-out: ELISA EC50 (effective concentration required to lower the amount of VEGF translation by 50%)
pEC50: −log10 of the molar value.

-- ask Any idea what its pEC50 is? The compound is CCc1cccc(NC(=O)Oc2ccc3ccccc3c2)c1
-- reply < 4.52

-- ask Endpoint output: pEC50 of CC1CC(C)CN(C(=O)Oc2ncc3ccccc3c2Cl)C1 (stereo not shown) . Value?
-- reply < 5.00

-- ask # input compound: O=C(Nc1ccc2ccccc2c1Br)N1CCCCC1 ; wanted: its pEC50
-- reply < 5.00

-- ask # lookup: pEC50 of CC1CCCCN1C(=O)Oc1c(Cl)cc(Cl)cc1Cl (stereo not shown)
-- reply < 4.52

-- ask If you can, please state the reported pEC50 value of Cc1ccc2cc(OC(=O)N3CCCc4ccccc43)ccc2n1 .
-- reply < 4.52

-- ask I have this compound here, O=C(Oc1cc(Cl)c(Cl)cc1Cl)N1CCCCC1 , and I need its recorded pEC50.
-- reply 4.74

-- ask What value of pEC50 has been reported for the following compound? O=C(Oc1c(Cl)cc(Cl)cc1Cl)N1CCc2ccccc2C1
-- reply < 4.52

-- ask Would you kindly share the measured pEC50 for CC(=O)c1c(OC(=O)N2CCc3cccnc32)ccc2ccccc12 ?
-- reply < 4.52

-- ask Given the entry O=C(Oc1cc2ccccc2cn1)N1CCc2ccccc21 , report its measured pEC50.
-- reply < 4.52

-- ask Could you share which pEC50 value was measured for O=C(NCC1CCCCC1)Oc1ccc2cc(Br)ccc2c1Br ?
-- reply < 4.52

-- ask Entry O=C(Oc1ccc2cc(Br)ccc2c1)N1CCCCC1 : reported pEC50 = ?
-- reply < 5.00

-- ask # query: pEC50 of entry O=C(Oc1c(Cl)cc(Cl)cc1Cl)N1CCC(Cc2ccccc2)CC1
-- reply 5.43

-- ask Which pEC50 is listed for O=C(Nc1ccc2ccccc2c1Cl)N1CCCCC1 ?
-- reply < 5.00

-- ask State the recorded pEC50 for this entry: O=C(Nc1ccc2ccccc2c1Br)N1CCC(C(O)(c2ccccc2)c2ccccc2)CC1
-- reply 6.66

-- ask What value of pEC50 has been recorded for this entry: O=C(Oc1ccc2ccccc2c1)N1CCCCC1
-- reply < 5.00

-- ask Request the reported pEC50 associated with O=C(Nc1ccc2ccccc2c1Cl)N1CCN(c2ccccc2)CC1
-- reply < 5.00

-- ask What value of measured pEC50 is listed for O=C(Oc1ccc2ccccc2c1Br)N1CCOCC1 ?
-- reply 6.00

-- ask Consider the compound shown here: CC1CCN(C(=O)Oc2cc(Cl)c(Cl)cc2Cl)CC1 What is its recorded pEC50?
-- reply 4.79

-- ask Reported pEC50 for CC1CCCCN1C(=O)Oc1cc2ccccc2cn1 (stereo not shown) : what is it?
-- reply < 4.52

-- ask What value of pEC50 has been reported for the following compound? O=C(Nc1ccc2ccccc2c1Br)N1CCC(Cc2ccccc2)CC1
-- reply < 5.00

-- ask Given the compound O=C(Oc1cc2ccccc2cn1)N1CCc2ccccc2C1 , what is its reported pEC50?
-- reply < 4.52

-- ask Returns the measured pEC50 for the input compound. Input: Cc1ccc(OC(=O)N2CCCC2)c(Br)c1
-- reply < 4.52

-- ask If you can, please state the reported pEC50 value of O=C(Oc1c(Cl)cc(Cl)cc1Cl)N1CCCCC1 .
-- reply < 4.52

-- ask # input compound: CS(=O)(=O)Nc1c(OC(=O)N2CCCCC2)ccc2ccccc12 ; wanted: its pEC50
-- reply < 5.30

-- ask Requested read-out: pEC50. Entry: Cc1ccc(OC(=O)N2CCC(C)CC2)c(Br)c1
-- reply < 4.52

-- ask // pEC50 lookup, key: O=C(Oc1ccc2cc(Br)ccc2c1)N1CCOCC1
-- reply < 5.00

-- ask Reported pEC50, compound O=C(Oc1ccccc1Br)N1CCCCC1 : ____
-- reply < 4.52

-- ask pEC50 for Cc1ccc2cc(OC(=O)N3CCc4ccccc4C3)ccc2n1 ?
-- reply < 4.52

-- ask For the compound CC1CC(C)CN(C(=O)Nc2ccc3ccccc3c2Cl)C1 (stereo not shown) , what pEC50 is on record?
-- reply < 5.00

-- ask Quick one: pEC50 of O=C(Oc1cc2ccccc2cn1)N1CCCC1 ?
-- reply < 4.52

-- ask pEC50 for CS(=O)(=O)Nc1c(OC(=O)Oc2ccc3ccccc3c2NS(C)(=O)=O)ccc2ccccc12 ?
-- reply 5.37

-- ask Record request: pEC50 value, item CC1CCN(C(=O)Oc2ccc3ccccc3c2Br)CC1
-- reply 6.33

-- ask Fill blank: measured pEC50 of the compound CC(=O)c1c(OC(=O)N2CC(C)CC(C)C2)ccc2ccccc12 (stereo not shown) is ____.
-- reply 6.12

-- ask Quick one: pEC50 for O=C(Nc1ccc2ccccc2c1Cl)N1CCN(c2ccc(Cl)cc2)CC1 ?
-- reply < 5.00

-- ask Quick one: pEC50 of O=C(Nc1ccc2ccccc2c1Cl)N1CCC(Cc2ccccc2)CC1 ?
-- reply < 5.00

-- ask // pEC50 lookup, key: CS(=O)(=O)Nc1c(OC(=O)N2CCC(Cc3ccccc3)CC2)ccc2ccccc12
-- reply < 5.30

-- ask Look up pEC50: O=C(Oc1c(Cl)cc(Cl)cc1Cl)N1CCN(c2ccccc2)CC1
-- reply 5.24

-- ask Look up pEC50: CC1CC(C)CN(C(=O)Oc2ccc3ccccc3c2Br)C1 (stereo not shown)
-- reply 6.89

-- ask Need pEC50 of CC1CCCC(C)N1C(=O)Oc1c(Cl)cc(Cl)cc1Cl (stereo not shown) , thanks.
-- reply < 4.52

-- ask Which measured pEC50 value corresponds to O=C(NC1CCCCC1)Oc1ccccc1Br ?
-- reply < 4.52

-- ask Would you kindly share the measured pEC50 for O=C(Oc1cc(Cl)c(Cl)cc1Cl)N1CCN(c2ccccc2)CC1 ?
-- reply < 4.52

-- ask GET /values?readout=pEC50&item= CS(=O)(=O)Nc1c(OC(=O)N2CCN(c3ccccc3)CC2)ccc2ccccc12
-- reply < 5.30

-- ask Could you share which pEC50 value was measured for Cc1ccc2cc(OC(=O)N3CCc4ccccc43)ccc2n1 ?
-- reply < 4.52

-- ask GET /values?readout=pEC50&item= O=C(Nc1ccc2ccccc2c1Cl)N1CCC(C(O)(c2ccccc2)c2ccccc2)CC1
-- reply 6.10

-- ask Name the recorded pEC50 for O=C(Oc1ccc2ccccc2c1Br)N1CCc2ccccc2C1 .
-- reply 6.76

-- ask // lookup pEC50 for CS(=O)(=O)Nc1c(O)ccc2ccccc12
-- reply < 5.30

-- ask Would you kindly share the measured pEC50 for CC1CCCCN1C(=O)Oc1ccc2ccccc2c1Br (stereo not shown) ?
-- reply 6.16

-- ask Entry O=C(Oc1ccc2cc(Br)ccc2c1Br)N1CCOCC1 : reported pEC50 = ?
-- reply < 4.52

-- ask Returns the measured pEC50 for the input compound. Input: CCC(NC(=O)Oc1ccc2ccccc2c1)(C(F)(F)F)C(F)(F)F
-- reply < 4.52
